Examples of binders with documented % Change Compared to pH 7.4 + Calcium follow.
- subjectOfTest: T1, recombinant, soluble human ASGR-1 (human, UniProt P07306 62-291)
- T1 construct: biotinylated in the binning assay; also called soluble huASGR-1; Soluble ASGR-1 (Amgen)
- T1 sequence: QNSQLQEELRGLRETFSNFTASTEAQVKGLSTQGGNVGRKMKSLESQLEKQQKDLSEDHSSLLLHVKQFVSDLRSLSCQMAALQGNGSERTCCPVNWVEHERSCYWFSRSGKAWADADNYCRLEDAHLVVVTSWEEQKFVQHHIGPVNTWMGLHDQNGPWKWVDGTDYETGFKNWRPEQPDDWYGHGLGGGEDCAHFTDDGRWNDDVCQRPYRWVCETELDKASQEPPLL
- assay: Octet BLI dissociation, pH 5.6 plus calcium
- Protocol: The relative dissociation of ASGR-1 from antibodies was measured using a label-free assay on an OctetHTX instrument (Fortebio). Antibody samples were captured on anti-HuFc kinetic biosensors (ForteBio cat #18-5064) at 5 ug/mL in assay buffer (10 mM Tris, 0.1% Triton, 150 mM NaCl, 1 mg/mL BSA, 1 mM CaCl2, pH7.4) for three minutes. […] Soluble ASGR-1 (Amgen) at 6 ug/ml in assay buffer was added and association to the antibodies was monitored for two minutes. […]
Respond numerically; units are % and should not be typed.

[[record]]
binder = "192G8 (antibody, V domains shown, hybridoma mAb) VH: QVQLVESGGGVVQPGRSLRLSCAASGFTFSSYGMHWVRQAPGKGLEWVAVIWYDGSNKNYADSVKGRFTISRDNSKNTLYLQMNSLRAEDTAVYYCARDQGVGYDGLDVWGQGTTVTVSS VL: DIQMTQSPSSLSASVGDRVTITCRTSQGIGNYLAWFQQKPGKAPKSLLYKASSLQSGVPSKFSGSGSGTDFTLTISSLQPEDFATYYCQQYITYPLTFGGGTKVEIK"
assayresult = -5


Report % Change Compared to pH 7.4 + Calcium for 52D10 (antibody, V domains shown, hybridoma mAb) VH: QVQLVESGGGVVQPGRSLRLSCAASGFTFSSYGMHWVRQAPGKGLEWVALIWYDGSNKYHADSVKGRFTISRDNSKNTLYLQMNSLRAEDTAVYYCARRYSSSWSGGMDVWGQGTTVTVSS VL: DVMMTQIPLSLSVTPGQPASISCKSSQSLLHSEGKTYLYWYLQKPGQPPQLLIFEVSNRVSGVPDRFSGRGSGTDFTLKISRVEAEDVGVYYCMQSIQYPITFGQGTRLEIK please.
3

Cited source: patent US20190248902A1
